# Tested on: SNB-75 CNS
# TEST METHOD NOTES: NCI-60 one-dose screen, 48 h (100 = growth as untreated, 0 = no growth, -100 = all killed)
# COND: 10 µM unless noted
# Protocol: Growth inhibition of the SNB-75 human tumor cell line is measured as a screen for anti-cancer activity. Cells are grown in 96 well plates and exposed to the test compound for 48 hours. Compounds are tested at a single concentration, which is 10^-5 M for most compounds. The reported endpoint is percent growth (GI% or GIPRCNT), where numbers from 0 - 100% represent growth inhibition, and numbers from -100% - 0 represent cell death. For example, a value of 40 represents 60% growth inhibition. […]
Compounds without any hit were thinned out: in the full panel of roughly 83,000, 20% have a hit.
The entries below come with measured growth values attached.
A number alone suffices; assume %.

Consider the worked cases shown below.
INSERT INTO assay_data (smiles_representation, target_desc, val) VALUES
  ('COc1cc2c(cc1OCCCCC(=O)Nc1ccc(-c3nc4ccccc4s3)cc1)N=C[C@@H]1CCCN1C2=O', 'SNB-75 CNS', -67.7),
  ('O=C1c2ccccc2C(=O)c2c(NCCN=Cc3c(O)ccc4ccccc34)cccc21', 'SNB-75 CNS', 84),
  ('O=C(NNC(=O)c1ccc([N+](=O)[O-])cc1)c1ccc([N+](=O)[O-])cc1', 'SNB-75 CNS', 84.5);

Supply measured growth of COc1ccc(-c2nn(-c3ccc(NC(=O)Nc4cc(C(F)(F)F)cc(C(F)(F)F)c4)cc3)cc2-c2ccncc2)cc1Cl in your reply.
34.4

Read the entry CCCCCCCCCCCCCCCCCCNCc1ccc(Cl)cc1 and write its reported growth.
-60.9

Return growth (reported value) for this compound: CC(=O)N[C@@H](CNC(=O)c1cc(NC(=O)c2cc(NC(=O)c3cc(NC(=O)c4nccn4C)cn3C)cn2C)cn1C)CC(=O)Nc1cn(C)c(C(=O)Nc2cc(C(=O)Nc3cc(C(=O)Nc4cc(C(=O)NCCCN(C)CCCNC(=O)c5cccc(C(=O)O)c5)n(C)c4)n(C)c3)n(C)c2)n1
107

Please report growth for the following compound: COc1ccccc1S(=O)(=O)Nc1ccc2c3c(cc(-c4cnn(C)c4)nc13)C(=O)N2C
26.6

Given O=c1cc(Cl)[nH]c(=O)[nH]1 , respond with its growth.
100
